For each record, write down the corresponding IC50.
- Subject of test: recombinant wildtype and mutated PPO (Amaranthus PPO2: PPX2L_WC SEQ ID NO 2, PPX2L_AC SEQ ID NO 4, dG210 SEQ ID NO 6 & 8) (Amaranthus tuberculatus, UniProt Q0NZW9, D133A/F420M/R128Q)
- Sequence (Q0NZW9 1-534 R128Q/D133A/F420M): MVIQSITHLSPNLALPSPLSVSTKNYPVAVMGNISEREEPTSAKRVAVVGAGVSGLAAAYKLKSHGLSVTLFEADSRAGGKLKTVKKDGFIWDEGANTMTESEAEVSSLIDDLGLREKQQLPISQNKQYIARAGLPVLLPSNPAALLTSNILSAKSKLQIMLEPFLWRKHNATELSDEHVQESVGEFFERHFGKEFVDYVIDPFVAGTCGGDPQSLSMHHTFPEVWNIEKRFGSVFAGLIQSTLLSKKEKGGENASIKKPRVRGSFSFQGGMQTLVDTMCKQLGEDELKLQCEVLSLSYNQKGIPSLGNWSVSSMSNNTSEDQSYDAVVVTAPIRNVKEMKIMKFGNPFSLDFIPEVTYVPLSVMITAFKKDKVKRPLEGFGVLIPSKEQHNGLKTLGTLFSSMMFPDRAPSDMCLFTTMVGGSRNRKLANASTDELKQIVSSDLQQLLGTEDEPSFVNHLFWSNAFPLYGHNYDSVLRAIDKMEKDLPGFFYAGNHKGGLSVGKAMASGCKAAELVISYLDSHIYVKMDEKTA
- Measurement protocol: biochemical
- Applied conditions: IC50 (M)
Give bare numbers, in M.

Below: 2 compounds and their reported IC50.
[
  {
    "Compound": "COC(=O)C(OC)Oc1ccccc1Oc1cc(-n2c(=O)cc(C(F)(F)F)n(C)c2=O)c(F)cc1Cl (stereo not drawn)",
    "Reported measurement": "7.14e-08"
  },
  {
    "Compound": "C#CCN1C(=O)C(F)(F)Oc2cc(F)c(-n3c(=O)n(C)c(=S)n(C)c3=O)cc21",
    "Reported measurement": "1.07e-08"
  }
]

# ---- query compound ----
So what does the record say about IC50 for COC(Oc1ccccc1Oc1cc(-n2c(=O)cc(C(F)(F)F)n(C)c2=O)c(F)cc1Cl)C(=O)OC1CCCCC1 (stereo not drawn) ? 1.72e-07
